# Dmax listing for each entry below
molecular target: ERα (Homo sapiens); construct: endogenous in cells; host or cells: MCF-7; experiment: ER degradation in MCF-7 cells (Western blot); assay type: cell-based; conditions: MCF7, Maximal ER degradation, read-out: Dmax
Sequence (P03372 whole entry): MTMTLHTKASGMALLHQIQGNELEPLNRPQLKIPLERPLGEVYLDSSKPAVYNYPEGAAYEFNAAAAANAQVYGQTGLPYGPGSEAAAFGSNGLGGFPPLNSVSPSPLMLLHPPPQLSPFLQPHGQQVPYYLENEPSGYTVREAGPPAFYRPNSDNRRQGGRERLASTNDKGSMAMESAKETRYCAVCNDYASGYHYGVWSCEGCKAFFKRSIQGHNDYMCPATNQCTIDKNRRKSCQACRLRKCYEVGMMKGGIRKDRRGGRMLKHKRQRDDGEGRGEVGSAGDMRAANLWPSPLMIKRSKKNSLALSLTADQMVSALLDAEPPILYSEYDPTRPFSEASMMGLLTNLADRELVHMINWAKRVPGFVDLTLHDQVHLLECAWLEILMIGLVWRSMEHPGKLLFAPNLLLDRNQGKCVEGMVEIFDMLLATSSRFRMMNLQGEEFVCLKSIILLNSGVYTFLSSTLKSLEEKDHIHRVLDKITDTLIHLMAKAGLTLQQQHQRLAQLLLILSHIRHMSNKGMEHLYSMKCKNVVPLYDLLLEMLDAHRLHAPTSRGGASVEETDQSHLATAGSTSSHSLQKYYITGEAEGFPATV

molecule="CC/C(=C(/c1ccc(B(O)O)cc1)c1ccc(N2CCC(CN3CCN(c4ccc5c(c4)C(=O)N(C4CCC(=O)NC4=O)C5)CC3)CC2)cc1)c1ccccc1 (stereo not shown)" result="> 75%"
molecule="CC/C(=C(\\c1ccc(B(O)O)cc1)c1ccc(N2CCC(CCN3CCN(c4ccc5c(c4)C(=O)N(C4CCC(=O)NC4=O)C5=O)CC3)CC2)cc1)c1ccccc1 (stereo not shown)" result="> 90%"
molecule="CC/C(=C(/c1ccc(O)cc1)c1ccc(N2CCN(C(=O)N3CCC(CN4CCN(c5ccc6c(c5)CN(C5CCC(=O)NC5=O)C6=O)CC4)CC3)CC2)cc1)c1ccccc1 (stereo not shown)" result="> 90%"

# ---- query molecule ----
Would you kindly share the measured Dmax for CC/C(=C(/c1ccc(B(O)O)cc1)c1ccc(N2CCC(CCCN3CCN(c4ccc5c(c4)CN(C4CCC(=O)NC4=O)C5=O)CC3)CC2)cc1)c1ccccc1 (stereo not shown) ?
> 90%

---

biological target: ER (Homo sapiens); construct: endogenous in cells; test: ER antagonism (T47D ERE luciferase), T47d-kb-Luc cells; details: read-out: IC50 (ER antagonistm)
Measured metric: IC50

compound="CC/C(=C(\\c1ccc(OCCN2CCN(CC3CCN(c4ccc5c(c4)CN(C4CCC(=O)NC4=O)C5=O)CC3)CC2)cc1)c1ccc(B(O)O)cc1)c1ccccc1 (stereo not shown) [Compound 22]" result="< 10 nM"
compound="CC/C(=C(/c1ccc(O)cc1)c1ccc(N2CCN(C(=O)N3CCN(c4ccc5c(c4)CN([C@H]4CCC(=O)NC4=O)C5=O)CC3)CC2)cc1)c1ccccc1 [Compound 101]" result="< 10 nM"
compound="CC/C(=C(/c1ccc(B(O)O)cc1)c1ccc(N2CCN(C(=O)N3CCN(c4ccc5c(c4)CN(C4CCC(=O)NC4=O)C5=O)CC3)CC2)cc1)c1ccccc1 (stereo not shown) [Compound 106]" result="< 10 nM"
compound="CC/C(=C(/c1ccc(B(O)O)cc1)c1ccc(N2CCC(CNC3CCN(c4ccc5c(c4)C(=O)N(C4CCC(=O)NC4=O)C5)CC3)CC2)cc1)c1ccccc1 (stereo not shown) [Compound 14]" result="< 10 nM"
compound="CC/C(=C(\\c1ccc(OCCN2CCC(CN3CCN(c4ccc5c(c4)CN([C@@H]4CCC(=O)NC4=O)C5=O)CC3)CC2)cc1)c1ccc(B(O)O)cc1)c1ccccc1 [Compound 76]" result="< 10 nM"

Would you kindly share the measured IC50 for CC/C(=C(\c1ccc(O)cc1)c1ccc(OCCN2CCN(C(=O)N3CCN(c4ccc5c(c4)CN(C4CCC(=O)NC4=O)C5=O)CC3)CC2)cc1)c1ccccc1 (stereo not shown) [Compound 77] ?
< 10 nM

Would you kindly share the measured IC50 for CC/C(=C(/c1ccc(OCCN2CCC(CN3CCN(c4ccc5c(c4)C(=O)N(C4CCC(=O)NC4=O)C5=O)CC3)CC2)cc1)c1ccc(B(O)O)cc1)c1ccccc1 (stereo not shown) [Compound 19] ?
> 50 nM

Would you kindly share the measured IC50 for CC/C(=C(\c1ccc(OCCN2CCN(C(=O)N3CCC(CN4CCN(c5ccc6c(c5)CN(C5CCC(=O)NC5=O)C6=O)CC4)CC3)CC2)cc1)c1ccc(B(O)O)cc1)c1ccccc1 (stereo not shown) [Compound 92] ?
< 10 nM

Would you kindly share the measured IC50 for CC/C(=C(\c1ccc(B(O)O)cc1)c1ccc(N2CCN(CCN3CCN(c4ccc5c(c4)CN(C4CCC(=O)NC4=O)C5=O)CC3)CC2)cc1)c1ccccc1 (stereo not shown) [Compound 61] ?
10 to 50 nM

Would you kindly share the measured IC50 for CC/C(=C(/c1ccc(OCCN2CCC(CCN3CCN(c4ccc5c(c4)C(=O)N(C4CCC(=O)NC4=O)C5=O)CC3)CC2)cc1)c1ccc(B(O)O)cc1)c1ccccc1 (stereo not shown) [Compound 27] ?
> 50 nM

Would you kindly share the measured IC50 for CC/C(=C(\c1ccc(OCCN2CCC(CCN3CCN(c4ccc5c(c4)CN(C4CCC(=O)NC4=O)C5=O)CC3)CC2)cc1)c1ccc(B(O)O)cc1)c1ccccc1 (stereo not shown) [Compound 30] ?
10 to 50 nM

Would you kindly share the measured IC50 for CC/C(=C(\c1ccc(O)cc1)c1ccc(N2CCN(C(=O)N3CCC(CN4CCN(c5ccc6c(c5)CN(C5CCC(=O)NC5=O)C6=O)CC4)CC3)CC2)cc1)c1ccccc1 (stereo not shown) [Compound 113] ?
< 10 nM

Would you kindly share the measured IC50 for CC/C(=C(/c1ccc(OCCN2CCN(C(=O)N3CCN(c4ccc5c(c4)CN([C@H]4CCC(=O)NC4=O)C5=O)CC3)CC2)cc1)c1ccc(B(O)O)cc1)c1ccccc1 [Compound 84] ?
< 10 nM

Would you kindly share the measured IC50 for CC/C(=C(/c1ccc(B(O)O)cc1)c1ccc(N2CCN(CCN3CCN(c4ccc5c(c4)C(=O)N(C4CCC(=O)NC4=O)C5=O)CC3)CC2)cc1)c1ccccc1 (stereo not shown) [Compound 60] ?
10 to 50 nM

---

# IC50 listing for each entry below
target: ER (Homo sapiens); construct: endogenous in cells; assay: ER antagonism (T47D ERE luciferase), T47d-kb-Luc cells; conditions: read-out: IC50 (ER antagonistm)

compound="CC/C(=C(\\c1ccc(O)cc1)c1ccc(OCCN2CCN(C(=O)N3CCN(c4ccc5c(c4)CN([C@H]4CCC(=O)NC4=O)C5=O)CC3)CC2)cc1)c1ccccc1 [Compound 78]" measured_metric=IC50 result="< 10 nM"

Would you kindly share the measured IC50 for CC/C(=C(/c1ccc(OCCN2CCC(CN3CCN(c4ccc5c(c4)CN([C@@H]4CCC(=O)NC4=O)C5=O)CC3)CC2)cc1)c1ccc(B(O)O)cc1)c1ccccc1 [Compound 74] ?
< 10 nM

Would you kindly share the measured IC50 for CC/C(=C(\c1ccc(B(O)O)cc1)c1ccc(N2CCN(C(=O)N3CCN(c4ccc5c(c4)CN([C@@H]4CCC(=O)NC4=O)C5=O)CC3)CC2)cc1)c1ccccc1 [Compound 105] ?
< 10 nM

Would you kindly share the measured IC50 for CC/C(=C(/c1ccc(B(O)O)cc1)c1ccc(N2CCC(CN3CCN(c4ccc5c(c4)CN(C4CCC(=O)NC4=O)C5=O)CC3)CC2)cc1)c1ccccc1 (centres unmarked) [Compound 2] ?
10 to 50 nM

Would you kindly share the measured IC50 for CC/C(=C(/c1ccc(OCCN2CCN(CCN3CCN(c4ccc5c(c4)C(=O)N(C4CCC(=O)NC4=O)C5=O)CC3)CC2)cc1)c1ccc(B(O)O)cc1)c1ccccc1 (centres unmarked) [Compound 23] ?
10 to 50 nM
